// data source = patent US20220119451A1

System Name: T1, mouse PD-L1 protein (G&P Biosciences, cat #FCL3502B) (mouse, UniProt Q9EP73 19-239, limits assumed)
T1 construct: Bought protein; construct not described; also called mPD-L1 protein
T1 sequence (Q9EP73 19-239 limits assumed): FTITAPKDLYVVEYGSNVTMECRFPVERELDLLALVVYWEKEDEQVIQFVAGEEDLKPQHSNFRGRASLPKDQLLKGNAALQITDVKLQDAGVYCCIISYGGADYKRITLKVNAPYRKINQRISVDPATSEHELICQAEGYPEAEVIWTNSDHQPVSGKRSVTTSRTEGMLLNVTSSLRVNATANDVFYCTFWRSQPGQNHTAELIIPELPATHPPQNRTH
Procedure Summary: ELISA, blocking of mouse PD-1 binding to coated mouse PD-L1 protein; further: test concentration or dose not given here
No end group written: not given here.
Form field: Blocking Efficiency (%) (one value per entry).
Respond with a number, then the unit of measure.

Some binders with recorded Blocking Efficiency (%):
>>> df
                                     binder             readout_kind  measured_value
0  WHRSYYTWNLNT (not fully specified, 12-mer from phage display) [CLP002 peptide]  Blocking Efficiency (%)             68%
1  WHFSYNWRWLPP (not fully specified, 12-mer from phage display) [CLP003 peptide]  Blocking Efficiency (%)             46%
2  HYPFRPHANQAS (not fully specified, 12-mer from phage display) [CLP001 peptide]  Blocking Efficiency (%)             34%

Request: So what does the record say about Blocking Efficiency (%) for DYHDPSLPTLRK (not fully specified, 12-mer from phage display) [CLP004 peptide] ?
Result: 48%
